# Tested on: DU-145 prostate
# Assay Summary: NCI-60 one-dose screen, 48 h
# Test Settings: 10 µM unless noted
The panel holds about 83,000 compounds, 20% with a hit somewhere; the sample as a whole holds those more often. Calls of active or inactive are those of the source. How the source made its calls: active means growth percent below 10; inactive means the rest.
Outcome codes: true = active, false = inactive

INSERT INTO measurements (molecule, class) VALUES
  ('O=C(c1ccccc1)C(c1ccccc1)N1CCOCC1 (stereo not drawn)', 'false'),
  ('CC12O[C@H](C[C@@H](OC(=O)CCC(=O)O)[C@H]1O)n1c3ccccc3c3c4c(c5c6ccccc6n2c5c31)C(=O)NC4=O', 'false'),
  ('O=C(CNc1nc2ccccc2s1)Nc1ccc(-c2nc3ccccc3s2)cc1', 'false'),
  ('C=C1CC[C@@H]2[C@](C)(COC(C)=O)[C@H](OC(C)=O)CC[C@@]2(C)[C@@H]1C/C=C1/C(=O)OC[C@H]1OC(C)=O', 'false'),
  ('Nc1c(C(=O)c2ccccc2)sc2nc(-c3cccs3)ccc12', 'false'),
  ('CCOC(=O)C1=C(C)NC(=O)NC1c1cc(=O)oc2ccc(C)cc12 (stereo not drawn)', 'false'),
  ('COc1cccc(NC(=O)Nc2ccc(Nc3ncnc4sc5c(c34)CCN(C(=O)CCl)C5)cc2)c1', 'false'),
  ('CCN(CC)CCOc1ccc(/C(=C(\C)c2ccc(Cl)cc2)c2ccc(Cl)cc2)cc1', 'false'),
  ('CC(C)(C)c1nc(-c2cccc(NS(=O)(=O)c3c(F)cccc3F)c2F)c(-c2ccnc(N)n2)s1', 'false'),
  ('Cn1c(Nc2ccc(C(F)(F)F)cc2)nc2cc(Oc3ccnc(-c4ncc(C(F)(F)F)[nH]4)c3)ccc21', 'false'),
  ('Cc1nn(-c2nc3ccccc3[nH]2)c2c1C(c1ccc(O)cc1)CC(=O)N2 (stereo not drawn)', 'false'),
  ('COc1ccc(C(=O)N2c3ccccc3Sc3ccccc32)c(F)c1', 'true'),
  ('O=C(NC[C@H](O)CO)c1ccncc1Nc1ccc(I)cc1F', 'false'),
  ('Nc1c(C(=O)c2ccccc2)sc2nc(-c3cccs3)cc(-c3cccs3)c12', 'false'),
  ('C=CCCCOC1[C@H](OCc2ccccc2)C(OCc2ccccc2)C(OC)O[C@@H]1CNC(=O)c1cccc(I)c1 (stereo partly drawn)', 'false'),
  ('CC(C)(C)CC(C)(C)Nc1c(-c2c(O)c3ccccc3oc2=O)nc2c(Cl)cc(C(F)(F)F)cn12', 'false'),
  ('CO[C@@H](C)Cn1c(=O)n(C)c2cnc3ccc(-c4cncc(C(C)(C)O)c4)cc3c21', 'false'),
  ('COc1cc(NCCCN)c2ncccc2c1', 'false'),
  ('Cc1cc(C)n(CC(=O)Nc2ccc(-c3nc4ccccc4s3)cc2)n1', 'false'),
  ('CC(C)=CCc1cc2c(cc1O)C1=C(C(=O)C3=C(NCCS3(=O)=O)C1=O)C(C=C(C)C)O2 (stereo not drawn)', 'false'),
  ('CSc1nc2ncncc2[nH]1', 'false'),
  ('CCOc1cc2ncc(C#N)c(Nc3ccc(F)c(Cl)c3)c2cc1NC(=O)/C=C/CN(C)C', 'true'),
  ('O=C(Nc1cccc([N+](=O)[O-])c1)c1ccc(Cl)c(Cl)c1', 'false'),
  ('Cc1[nH]c(/C=C2\C(=O)Nc3ccc(F)cc32)c(C)c1C(=O)NC[C@H](O)CN1CCOCC1', 'false'),
  ('CNC(=O)c1cccc2cc(Oc3ccnc4cc(OCC5(N)CC5)c(OC)cc34)ccc12', 'false'),
  ('COc1cc(OC)c(C(=O)/C=C/c2cc3c(cc2OCc2ccccc2)OC(C)(C)CC3)cc1CC=C(C)C', 'false'),
  ('COc1ccc(C2CC(=O)c3c(O)c(OC)c(OC)c(OC)c3O2)cc1O (stereo not drawn)', 'false'),
  ('COc1ccc(-n2c(=O)c3ccccc3n(Cc3ccc(C(=O)NO)cc3)c2=O)cc1', 'false'),
  ('Cc1oc2c(C(=O)N/N=C\c3ccc(O)cc3O)c[nH]c2c1C', 'true'),
  ('COc1cc(Nc2ncc3c(n2)-c2ccc(Cl)cc2C(c2c(F)cccc2OC)=NC3)ccc1C(=O)O', 'false'),
  ('O=C(Nc1ccc(C2=NCCCN2)cc1)c1ccc(C(=O)Nc2ccc(C3=NCCCN3)cc2)nc1', 'false'),
  ('Cc1nn(-c2ccccc2)c2c1N=c1s/c(=C\c3cn(-c4ccccc4)nc3-c3ccc(Cl)cc3)c(=O)n1C(C)N2 (stereo not drawn)', 'false'),
  ('C[C@@H](N)c1ccc(C(=O)Nc2ccnc3[nH]ccc23)cc1', 'false'),
  ('Cc1cccc(C)c1N1C(c2ccccc2)=NNC12C=CC(=O)c1c(O)cccc12 (stereo not drawn)', 'false'),
  ('Oc1ccc(/C=N/Nc2nnc(N/N=C/c3ccc(O)cc3O)c3ccccc23)c(O)c1', 'true'),
  ('O=C(O)C1(Cc2cccc(Nc3nccs3)n2)CCC(Oc2cccc(Cl)c2F)CC1 (stereo not drawn)', 'false'),
  ('CCCCN1CCCC[C@@H]1C(=O)N[C@H](C(=O)N(C)[C@H](CCc1nc(C(=O)N[C@@H](Cc2ccccc2)C[C@H](C)C(=O)OC)cs1)C(C)C)C(C)C', 'false'),
  ('CN1CCN(CCCOc2cccc3nc(Nc4ccc(Cl)c(C(F)(F)F)c4)ccc23)CC1', 'true');
